- Subject Of Test: recombinant human ACC2 (Homo sapiens, UniProt O00763)
- Construct: a full length Cytomax clone of ACC2 was purchased from Cambridge Bioscience Limited; made in house; host or cells: CHO cells (tetracycline induction, pcDNA5 FRT TO-TOPO); purified on a Softlink Soft Release Avidin column
- Sequence (O00763 whole entry): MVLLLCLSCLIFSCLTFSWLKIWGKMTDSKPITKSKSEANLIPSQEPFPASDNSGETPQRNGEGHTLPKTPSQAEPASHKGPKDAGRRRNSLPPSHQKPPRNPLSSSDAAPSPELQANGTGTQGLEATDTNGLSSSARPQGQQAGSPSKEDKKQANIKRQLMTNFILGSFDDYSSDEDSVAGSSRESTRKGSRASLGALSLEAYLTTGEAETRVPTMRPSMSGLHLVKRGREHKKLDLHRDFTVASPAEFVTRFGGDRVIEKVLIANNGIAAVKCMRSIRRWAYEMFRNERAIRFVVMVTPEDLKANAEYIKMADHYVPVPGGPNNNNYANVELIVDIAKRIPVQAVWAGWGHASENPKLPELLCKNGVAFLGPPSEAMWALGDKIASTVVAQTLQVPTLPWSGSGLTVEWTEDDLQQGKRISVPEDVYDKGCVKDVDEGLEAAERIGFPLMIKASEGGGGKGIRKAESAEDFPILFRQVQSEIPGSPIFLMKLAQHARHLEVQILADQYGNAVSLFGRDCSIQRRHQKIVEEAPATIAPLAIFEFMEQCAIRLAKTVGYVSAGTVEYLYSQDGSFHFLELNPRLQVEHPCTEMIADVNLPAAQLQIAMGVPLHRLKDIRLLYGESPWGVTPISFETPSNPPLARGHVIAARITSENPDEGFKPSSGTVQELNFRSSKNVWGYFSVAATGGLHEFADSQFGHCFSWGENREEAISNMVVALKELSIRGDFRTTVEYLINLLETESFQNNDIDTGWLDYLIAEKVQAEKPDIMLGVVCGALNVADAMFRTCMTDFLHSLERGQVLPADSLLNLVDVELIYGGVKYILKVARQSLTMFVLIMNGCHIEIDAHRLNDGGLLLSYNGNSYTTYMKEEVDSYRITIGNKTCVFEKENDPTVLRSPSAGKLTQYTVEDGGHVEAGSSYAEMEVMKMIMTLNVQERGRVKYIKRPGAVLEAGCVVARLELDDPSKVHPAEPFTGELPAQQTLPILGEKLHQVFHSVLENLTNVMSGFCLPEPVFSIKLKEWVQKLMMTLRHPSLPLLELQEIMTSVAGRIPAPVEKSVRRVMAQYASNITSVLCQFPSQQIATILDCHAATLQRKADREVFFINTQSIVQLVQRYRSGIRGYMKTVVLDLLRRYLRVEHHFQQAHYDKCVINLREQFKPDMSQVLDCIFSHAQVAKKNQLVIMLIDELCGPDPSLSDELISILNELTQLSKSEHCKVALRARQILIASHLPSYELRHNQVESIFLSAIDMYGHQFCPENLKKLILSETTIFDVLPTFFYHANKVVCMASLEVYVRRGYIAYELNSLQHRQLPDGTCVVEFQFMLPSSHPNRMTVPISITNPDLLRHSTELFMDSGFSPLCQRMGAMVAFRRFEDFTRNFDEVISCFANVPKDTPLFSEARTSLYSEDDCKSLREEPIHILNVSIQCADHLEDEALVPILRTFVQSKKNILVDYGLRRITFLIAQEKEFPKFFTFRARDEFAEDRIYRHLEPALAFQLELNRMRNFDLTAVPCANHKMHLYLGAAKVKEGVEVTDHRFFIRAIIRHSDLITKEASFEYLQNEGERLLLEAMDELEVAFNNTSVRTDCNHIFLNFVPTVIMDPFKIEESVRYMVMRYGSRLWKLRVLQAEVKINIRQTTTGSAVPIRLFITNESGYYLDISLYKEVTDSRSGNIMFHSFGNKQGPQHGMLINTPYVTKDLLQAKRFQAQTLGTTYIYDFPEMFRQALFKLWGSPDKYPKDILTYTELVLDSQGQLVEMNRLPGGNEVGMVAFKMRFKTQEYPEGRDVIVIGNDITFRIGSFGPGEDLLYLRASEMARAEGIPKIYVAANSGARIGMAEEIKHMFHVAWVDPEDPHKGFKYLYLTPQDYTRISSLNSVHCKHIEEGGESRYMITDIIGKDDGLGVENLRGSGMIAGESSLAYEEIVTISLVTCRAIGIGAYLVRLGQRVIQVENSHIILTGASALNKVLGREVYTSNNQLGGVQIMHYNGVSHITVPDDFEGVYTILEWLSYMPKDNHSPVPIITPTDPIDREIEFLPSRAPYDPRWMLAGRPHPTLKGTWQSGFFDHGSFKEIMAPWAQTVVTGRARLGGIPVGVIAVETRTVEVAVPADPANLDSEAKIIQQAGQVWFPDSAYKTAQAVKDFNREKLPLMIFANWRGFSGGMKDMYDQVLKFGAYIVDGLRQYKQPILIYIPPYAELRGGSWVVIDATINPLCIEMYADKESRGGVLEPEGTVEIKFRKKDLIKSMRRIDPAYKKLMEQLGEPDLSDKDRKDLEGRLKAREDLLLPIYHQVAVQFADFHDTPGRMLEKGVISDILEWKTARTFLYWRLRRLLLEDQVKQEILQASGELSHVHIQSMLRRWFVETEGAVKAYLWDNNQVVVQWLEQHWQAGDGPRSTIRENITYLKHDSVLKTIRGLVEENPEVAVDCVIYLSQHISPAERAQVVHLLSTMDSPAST
- Run Description: Measurement of human ACC2 inhibition (recombinant hACC2 Transcreener ADP detection FP assay)
- Type: biochemical
- Test Settings: recombinant hACC2 transcreener assay; read-out: rhACC2 IC50
Values of IC50 strictly less than 10 nM map to yes, and values of at least 10 nM map to no.

Completed entries (count: 3):
- Chemical Smiles: "Cn1ncc2ccc(C(=O)N3CCC4(CC3)CC(=O)c3nn(C(C)(C)C)cc3O4)cc21"
  Subject Of Test: "recombinant human ACC2 (Homo sapiens, UniProt O00763)"
  Assigned Class: "no"
- Chemical Smiles: "COc1cc(C(=O)N2CCC3(CC2)CC(=O)c2nn(C(C)(C)C)cc2O3)cc2[nH]ncc12"
  Subject Of Test: "recombinant human ACC2 (Homo sapiens, UniProt O00763)"
  Assigned Class: "yes"
- Chemical Smiles: "CC(C)(C)n1cc2c(n1)C(=O)CC1(CCN(C(=O)c3ccc4snc(N)c4c3)CC1)O2"
  Subject Of Test: "recombinant human ACC2 (Homo sapiens, UniProt O00763)"
  Assigned Class: "yes"

Just wondering, is IC50 of Cc1cc(C(=O)N2CCC3(CC2)CC(=O)c2nn(C(C)(C)C)cc2O3)cc2cnsc12 below 10 nM?
yes

# strict comparison: is reported IC50 < 10 nM? input = CCn1nc2c(c1C)OC1(CCN(C(=O)c3ccc4c(c3)ncn4C)CC1)CC2=O
no

Regarding Cc1nc2cc(C(=O)N3CCC4(CC3)CC(=O)c3nn(C(C)(C)C)cc3O4)ccc2s1 , kindly confirm whether its IC50 is beneath 10 nM.
yes

Bench note: check whether CC(C)(C)n1cc2c(n1)C(=O)CC1(CCN(C(=O)c3cc(F)c4cn[nH]c4c3)CC1)O2 shows IC50 below 10 nM
no

Check if IC50 falls below 10 nM for Cc1nc2ccc(C(=O)N3CCC4(CC3)CC(=O)c3nn(C(C)(C)C)cc3O4)cc2[nH]1 .
no

I wonder whether CC(C)(C)n1cc2c(n1)C(=O)CC1(CCN(C(=O)c3ccc4nc[nH]c4c3)CC1)O2 has IC50 below 10 nM. Can you tell?
no

Does the reported IC50 of the following compound sit strictly below 10 nM? CC(C)(C)n1cc2c(n1)C(=O)CC1(CCN(C(=O)c3ccc4cc[nH]c(=O)c4c3)CC1)O2
no

----------
- Subject Of Test: recombinant human ACC2 (Homo sapiens)
- Construct: a full length Cytomax clone of ACC2 was purchased from Cambridge Bioscience Limited; made in house; host or cells: CHO cells (tetracycline induction, pcDNA5 FRT TO-TOPO); purified on a Softlink Soft Release Avidin column
- Run Description: Measurement of human ACC2 inhibition (recombinant hACC2 Transcreener ADP detection FP assay)
- Type: biochemical
- Test Settings: recombinant hACC2 transcreener assay; read-out: rhACC2 IC50
Exam item: assign y to entries whose IC50 is below 30 nM and n to entries at or above 30 nM. Note that a value of exactly 30 nM receives n.

- Compound: "Cc1n[nH]c2c(Cl)cc(C(=O)N3CCC4(CC3)CC(=O)c3nn(C(C)C)cc3O4)cc12 [1.102]"
  Assigned Class: "y"

Please turn your attention to the following entry.
Problem: For the compound CCn1nc2c(c1C)OC1(CCN(C(=O)c3ccc4[nH]ncc4c3)CC1)CC2=O [1.068] , is IC50 under 30 nM?
n

----------
- Subject Of Test: recombinant human ACC2 (Homo sapiens)
- Construct: a full length Cytomax clone of ACC2 was purchased from Cambridge Bioscience Limited; made in house; host or cells: CHO cells (tetracycline induction, pcDNA5 FRT TO-TOPO); purified on a Softlink Soft Release Avidin column
- Run Description: Measurement of human ACC2 inhibition (recombinant hACC2 Transcreener ADP detection FP assay)
- Type: biochemical
- Test Settings: recombinant hACC2 transcreener assay; read-out: rhACC2 IC50
Property Measured: pIC50
To interpret pIC50, take it as minus log10 of a concentration measured in moles per litre.

- Compound: "CCOc1cc(C(=O)N2CCC3(CC2)CC(=O)c2nn(CC)c(C)c2O3)cc2c(CC)n[nH]c12 [1.119]"
  pIC50: 7.74
- Compound: "Cc1n[nH]c2c(C)cc(C(=O)N3CCC4(CC3)CC(=O)c3nn(C5CCCC5)cc3O4)cc12"
  pIC50: 8.40
- Compound: "CCc1cc(C(=O)N2CCC3(CC2)CC(=O)c2nn(CC)c(C)c2O3)cc2c(C)n[nH]c12"
  pIC50: 8.00
- Compound: "COc1ccc2ccc(C(=O)N3CCC4(CC3)CC(=O)c3nn(C(C)(C)C)cc3O4)cc2c1"
  pIC50: 8.70
- Compound: "CC(C)(C)n1cc2c(n1)C(=O)CC1(CCN(C(=O)c3cc(F)c4nc[nH]c4c3)CC1)O2"
  pIC50: 7.85
- Compound: "Cn1ncc2cc(C(=O)N3CCC4(CC3)CC(=O)c3nn(C(C)(C)C)cc3O4)ccc21"
  pIC50: 7.59

With those in mind, consider the next compound.
Which pIC50 value belongs to CCc1n[nH]c2c(OC)cc(C(=O)N3CCC4(CC3)CC(=O)c3nn(CC)cc3O4)cc12 ?
7.54

----------
- Subject Of Test: recombinant human ACC2 (Homo sapiens)
- Construct: a full length Cytomax clone of ACC2 was purchased from Cambridge Bioscience Limited; made in house; host or cells: CHO cells (tetracycline induction, pcDNA5 FRT TO-TOPO); purified on a Softlink Soft Release Avidin column
- Run Description: Measurement of human ACC2 inhibition (recombinant hACC2 Transcreener ADP detection FP assay)
- Assay type: biochemical
- Test Settings: recombinant hACC2 transcreener assay; read-out: rhACC2 IC50
- Method: [3] Measurement of human ACC2 inhibition. Human ACC2 inhibition was measured using purified recombinant human ACC2 (hrACC2). […] The ACC2 was expressed in CHO cells by tetracycline induction and harvested in 5 liters of DMEM/F12 with glutamine, biotin, hygromycin and blasticidin with 1 μg/mL tetracycline (Invitrogen, Carlsbad, Calif.). The conditioned medium containing ACC2 was then applied to a Softlink Soft Release Avidin column (Promega, Madison, Wis.) and eluted with 5 mM biotin. […]
pIC50: −log10 of the molar value.
Cut-off 8 on pIC50, inclusive. At or above means MET; below means NOT MET.

- Chemical Smiles: "Cc1c(C(=O)N2CCC3(CC2)CC(=O)c2nn(C(C)(C)C)cc2O3)ccc2[nH]ncc12"
  Assigned Class: "NOT MET"
- Chemical Smiles: "CCn1nc2c(c1C)OC1(CCN(C(=O)c3cc(F)c4cn[nH]c4c3)CC1)CC2=O"
  Assigned Class: "NOT MET"
- Chemical Smiles: "Cc1c2c(nn1C(C)C)C(=O)CC1(CCN(C(=O)c3ccc4[nH]ncc4c3)CC1)O2"
  Assigned Class: "NOT MET"

Answer whether pIC50 of COc1cc(C(=O)N2CCC3(CC2)CC(=O)c2nn(C(C)(C)C)c(C)c2O3)cc2cn[nH]c12 is greater than or equal to 8.
NOT MET

Check the entry CCc1nn(C)c2c(OC)cc(C(=O)N3CCC4(CC3)CC(=O)c3nn(CC)cc3O4)cc12 : does pIC50 equal or exceed 8?
NOT MET

Dear colleague, could you confirm whether CCc1n[nH]c2c(C)cc(C(=O)N3CCC4(CC3)CC(=O)c3nn(CC)cc3O4)cc12 has pIC50 at or above 8?
NOT MET

Check if pIC50 >= 8 (inclusive). Item: CCn1nc2c(c1C)OC1(CCN(C(=O)c3ccc4ncccc4c3)CC1)CC2=O
NOT MET

----------
- Subject Of Test: recombinant human ACC2 (Homo sapiens, UniProt O00763)
- Construct: a full length Cytomax clone of ACC2 was purchased from Cambridge Bioscience Limited; made in house; host or cells: CHO cells (tetracycline induction, pcDNA5 FRT TO-TOPO); purified on a Softlink Soft Release Avidin column
- Run Description: Measurement of human ACC2 inhibition (recombinant hACC2 Transcreener ADP detection FP assay)
- Format: biochemical
- Test Settings: recombinant hACC2 transcreener assay; read-out: rhACC2 IC50
pIC50: −log10 of the molar value.
Please mark y if the recorded pIC50 is equal to or greater than 7, and n if it falls below.

Could you please find out whether CCn1cc2c(n1)C(=O)CC1(CCN(C(=O)c3ccc4c(C)n[nH]c4c3)CC1)O2 [2.024] has pIC50 that meets 7 or exceeds it?
y

# bool: pIC50 of CC(C)n1cc2c(n1)C(=O)CC1(CCN(C(=O)c3cc(Cl)c4[nH]ncc4c3)CC1)O2 [1.066] >= 7
y

Check this compound for pIC50 at or above 7: CCn1nc2c(c1C)OC1(CCN(C(=O)c3cc(OC)c4[nH]ncc4c3)CC1)CC2=O [1.052]
y

Given the entry CCn1nc2c(c1C)OC1(CCN(C(=O)c3ccc4ncn(C)c4c3)CC1)CC2=O [3.016] , answer whether its pIC50 meets or surpasses 7.
n
